Measurement record for Serine/threonine-protein kinase Chk1 (Homo sapiens, UniProt O14757); quantity recorded: Kd.
readout: Kd

- COCC(=O)NC/C=C/c1ccc2ncnc(Nc3ccc(Oc4ccc(C)nc4)c(C)c3)c2c1: > 10 µM
- CCOc1cc2ncc(C#N)c(Nc3ccc(F)c(Cl)c3)c2cc1NC(=O)/C=C/CN(C)C: 1.9 µM
- NC(=O)c1ccc(-c2nc(-c3ccc4c(c3)OCO4)c(-c3ccccn3)[nH]2)cc1: > 10 µM
- Oc1ccc(-c2nc(-c3ccncc3)c(-c3ccc(F)cc3)[nH]2)cc1: > 10 µM

###

pKd: −log10 of the molar value.
This section lists pKd readings for cAMP-dependent protein kinase catalytic subunit beta (Homo sapiens).
readout: pKd

* Nc1nc(Nc2ccc(S(N)(=O)=O)cc2)nn1C(=O)c1c(F)cccc1F [JNJ-7706621] | < 5.00
* COCC(=O)NC/C=C/c1ccc2ncnc(Nc3ccc(Oc4ccc(C)nc4)c(C)c3)c2c1 [CP-724714] | < 5.00
* CCOc1cc2ncc(C#N)c(Nc3ccc(F)c(Cl)c3)c2cc1NC(=O)/C=C/CN(C)C [PELITINIB] | < 5.00
* Oc1ccc(-c2nc(-c3ccncc3)c(-c3ccc(F)cc3)[nH]2)cc1 [SB-202190] | 6.28
* NC(=O)c1ccc(-c2nc(-c3ccc4c(c3)OCO4)c(-c3ccccn3)[nH]2)cc1 [SB-431542] | < 5.00

###

pKd: −log10 of the molar value.
Measured pKd on cAMP-dependent protein kinase catalytic subunit alpha (Homo sapiens, UniProt P17612) follows.
readout: pKd

- CCOc1cc2ncc(C#N)c(Nc3ccc(F)c(Cl)c3)c2cc1NC(=O)/C=C/CN(C)C [PELITINIB]: < 5.00
- NC(=O)c1ccc(-c2nc(-c3ccc4c(c3)OCO4)c(-c3ccccn3)[nH]2)cc1 [SB-431542]: < 5.00
- COCC(=O)NC/C=C/c1ccc2ncnc(Nc3ccc(Oc4ccc(C)nc4)c(C)c3)c2c1 [CP-724714]: < 5.00

###

pKd: −log10 of the molar value.
Serine/threonine-protein kinase BRSK2 (Homo sapiens) pKd data
Sequence (Q8IWQ3 whole entry): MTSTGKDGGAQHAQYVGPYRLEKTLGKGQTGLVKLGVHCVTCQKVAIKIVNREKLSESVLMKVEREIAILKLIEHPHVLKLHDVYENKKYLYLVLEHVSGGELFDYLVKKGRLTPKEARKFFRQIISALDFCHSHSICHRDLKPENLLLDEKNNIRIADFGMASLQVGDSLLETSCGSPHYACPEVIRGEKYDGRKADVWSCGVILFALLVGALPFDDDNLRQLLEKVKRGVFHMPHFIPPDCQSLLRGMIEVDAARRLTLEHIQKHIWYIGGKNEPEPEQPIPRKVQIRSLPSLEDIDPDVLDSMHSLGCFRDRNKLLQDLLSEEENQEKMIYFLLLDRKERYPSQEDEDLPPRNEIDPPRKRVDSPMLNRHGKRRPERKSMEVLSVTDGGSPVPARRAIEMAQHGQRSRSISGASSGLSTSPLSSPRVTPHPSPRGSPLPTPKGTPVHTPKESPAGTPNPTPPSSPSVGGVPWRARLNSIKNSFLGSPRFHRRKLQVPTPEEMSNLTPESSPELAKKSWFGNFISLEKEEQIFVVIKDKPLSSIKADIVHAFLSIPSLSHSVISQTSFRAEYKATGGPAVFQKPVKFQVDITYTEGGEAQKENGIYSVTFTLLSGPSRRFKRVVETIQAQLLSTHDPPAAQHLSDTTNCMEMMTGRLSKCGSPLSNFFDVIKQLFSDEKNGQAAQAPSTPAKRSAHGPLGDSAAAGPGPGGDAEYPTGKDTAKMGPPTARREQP
readout: pKd

* Nc1nc(Nc2ccc(S(N)(=O)=O)cc2)nn1C(=O)c1c(F)cccc1F | 5.57
* Oc1ccc(-c2nc(-c3ccncc3)c(-c3ccc(F)cc3)[nH]2)cc1 | < 5.00
* CCOc1cc2ncc(C#N)c(Nc3ccc(F)c(Cl)c3)c2cc1NC(=O)/C=C/CN(C)C | < 5.00
* COCC(=O)NC/C=C/c1ccc2ncnc(Nc3ccc(Oc4ccc(C)nc4)c(C)c3)c2c1 | < 5.00
* NC(=O)c1ccc(-c2nc(-c3ccc4c(c3)OCO4)c(-c3ccccn3)[nH]2)cc1 | < 5.00

###

- tested system: Serine/threonine-protein kinase 36 (Homo sapiens, UniProt Q9NRP7)
- Sequence (Q9NRP7 whole entry): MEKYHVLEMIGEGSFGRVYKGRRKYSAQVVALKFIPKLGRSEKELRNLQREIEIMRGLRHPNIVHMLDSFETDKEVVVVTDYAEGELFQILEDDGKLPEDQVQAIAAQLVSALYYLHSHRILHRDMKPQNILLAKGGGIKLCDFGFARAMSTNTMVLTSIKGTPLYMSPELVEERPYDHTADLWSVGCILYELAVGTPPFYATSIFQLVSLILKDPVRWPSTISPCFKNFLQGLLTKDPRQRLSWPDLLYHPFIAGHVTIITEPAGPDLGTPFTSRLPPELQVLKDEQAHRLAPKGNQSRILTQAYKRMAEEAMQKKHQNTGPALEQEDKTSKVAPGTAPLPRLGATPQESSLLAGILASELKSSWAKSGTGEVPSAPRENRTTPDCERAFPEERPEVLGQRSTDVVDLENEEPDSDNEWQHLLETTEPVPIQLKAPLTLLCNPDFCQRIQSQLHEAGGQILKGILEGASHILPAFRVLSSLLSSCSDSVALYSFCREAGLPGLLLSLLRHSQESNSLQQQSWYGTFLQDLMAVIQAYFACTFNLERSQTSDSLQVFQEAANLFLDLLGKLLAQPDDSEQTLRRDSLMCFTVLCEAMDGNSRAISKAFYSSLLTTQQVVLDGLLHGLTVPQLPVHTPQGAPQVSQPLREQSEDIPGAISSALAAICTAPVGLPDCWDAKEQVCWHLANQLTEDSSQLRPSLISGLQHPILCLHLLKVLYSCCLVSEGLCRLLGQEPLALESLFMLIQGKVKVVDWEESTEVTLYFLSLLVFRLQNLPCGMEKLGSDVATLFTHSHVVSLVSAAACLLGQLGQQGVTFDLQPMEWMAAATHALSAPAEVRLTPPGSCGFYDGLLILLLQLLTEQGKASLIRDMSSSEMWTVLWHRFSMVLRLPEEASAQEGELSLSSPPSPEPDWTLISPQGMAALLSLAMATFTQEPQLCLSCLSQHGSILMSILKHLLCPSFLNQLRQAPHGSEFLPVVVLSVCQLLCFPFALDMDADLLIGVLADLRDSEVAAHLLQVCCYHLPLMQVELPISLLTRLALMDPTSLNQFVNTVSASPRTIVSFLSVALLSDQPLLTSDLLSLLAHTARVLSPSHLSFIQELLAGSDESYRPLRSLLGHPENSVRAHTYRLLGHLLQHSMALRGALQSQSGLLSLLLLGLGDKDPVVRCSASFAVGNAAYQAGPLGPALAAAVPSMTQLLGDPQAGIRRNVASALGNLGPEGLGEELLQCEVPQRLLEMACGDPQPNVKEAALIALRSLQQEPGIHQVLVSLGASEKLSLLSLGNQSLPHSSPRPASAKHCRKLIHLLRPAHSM
Quick reference: Kd of the listed items.
readout: Kd

- Nc1nc(Nc2ccc(S(N)(=O)=O)cc2)nn1C(=O)c1c(F)cccc1F: > 10 µM
- Oc1ccc(-c2nc(-c3ccncc3)c(-c3ccc(F)cc3)[nH]2)cc1: 0.79 µM
- NC(=O)c1ccc(-c2nc(-c3ccc4c(c3)OCO4)c(-c3ccccn3)[nH]2)cc1: > 10 µM
- COCC(=O)NC/C=C/c1ccc2ncnc(Nc3ccc(Oc4ccc(C)nc4)c(C)c3)c2c1: > 10 µM

###

- tested system: Serine/threonine-protein kinase RIO1 (Homo sapiens, UniProt Q9BRS2)
- Sequence (Q9BRS2 whole entry): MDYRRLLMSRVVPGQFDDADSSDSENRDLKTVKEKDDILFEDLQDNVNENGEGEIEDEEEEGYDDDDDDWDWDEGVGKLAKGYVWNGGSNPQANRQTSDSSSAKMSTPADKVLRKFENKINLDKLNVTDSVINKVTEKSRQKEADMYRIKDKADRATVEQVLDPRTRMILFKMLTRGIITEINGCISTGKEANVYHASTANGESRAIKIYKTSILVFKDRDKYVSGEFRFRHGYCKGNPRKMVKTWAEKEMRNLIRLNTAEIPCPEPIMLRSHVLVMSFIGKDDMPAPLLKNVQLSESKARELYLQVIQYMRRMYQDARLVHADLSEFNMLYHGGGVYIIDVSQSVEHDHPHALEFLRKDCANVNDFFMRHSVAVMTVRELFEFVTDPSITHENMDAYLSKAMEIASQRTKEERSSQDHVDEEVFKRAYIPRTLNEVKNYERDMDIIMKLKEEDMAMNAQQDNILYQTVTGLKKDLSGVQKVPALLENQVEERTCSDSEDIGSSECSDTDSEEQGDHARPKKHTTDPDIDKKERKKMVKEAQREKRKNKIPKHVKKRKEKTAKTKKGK
readout: Kd

* Oc1ccc(-c2nc(-c3ccncc3)c(-c3ccc(F)cc3)[nH]2)cc1 [SB-202190] | > 10 µM
* COCC(=O)NC/C=C/c1ccc2ncnc(Nc3ccc(Oc4ccc(C)nc4)c(C)c3)c2c1 [CP-724714] | > 10 µM
* NC(=O)c1ccc(-c2nc(-c3ccc4c(c3)OCO4)c(-c3ccccn3)[nH]2)cc1 [SB-431542] | > 10 µM
* CCOc1cc2ncc(C#N)c(Nc3ccc(F)c(Cl)c3)c2cc1NC(=O)/C=C/CN(C)C [PELITINIB] | > 10 µM

###

- tested system: Mitogen-activated protein kinase 8 (Homo sapiens, UniProt P45983)
- Sequence (P45983 whole entry): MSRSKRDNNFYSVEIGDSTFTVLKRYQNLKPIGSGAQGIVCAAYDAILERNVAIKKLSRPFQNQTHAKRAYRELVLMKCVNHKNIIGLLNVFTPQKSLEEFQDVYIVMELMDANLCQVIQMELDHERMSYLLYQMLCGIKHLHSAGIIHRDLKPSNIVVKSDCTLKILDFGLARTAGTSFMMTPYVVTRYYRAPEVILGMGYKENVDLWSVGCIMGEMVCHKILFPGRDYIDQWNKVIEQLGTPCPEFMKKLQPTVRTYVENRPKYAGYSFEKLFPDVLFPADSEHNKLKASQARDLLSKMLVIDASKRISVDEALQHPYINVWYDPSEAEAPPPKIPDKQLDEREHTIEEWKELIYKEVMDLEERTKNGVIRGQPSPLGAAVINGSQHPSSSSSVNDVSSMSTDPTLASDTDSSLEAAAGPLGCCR
pKd: −log10 of the molar value.
Recorded pKd values for a group of molecules are listed next.
readout: pKd

- Oc1ccc(-c2nc(-c3ccncc3)c(-c3ccc(F)cc3)[nH]2)cc1: 5.62
- CCOc1cc2ncc(C#N)c(Nc3ccc(F)c(Cl)c3)c2cc1NC(=O)/C=C/CN(C)C: < 5.00
- COCC(=O)NC/C=C/c1ccc2ncnc(Nc3ccc(Oc4ccc(C)nc4)c(C)c3)c2c1: < 5.00
- NC(=O)c1ccc(-c2nc(-c3ccc4c(c3)OCO4)c(-c3ccccn3)[nH]2)cc1: < 5.00

###

Each entry below lists one item and its recorded pKd value.
- tested system: ALK tyrosine kinase receptor (Homo sapiens, UniProt Q9UM73)
- Sequence (Q9UM73 whole entry): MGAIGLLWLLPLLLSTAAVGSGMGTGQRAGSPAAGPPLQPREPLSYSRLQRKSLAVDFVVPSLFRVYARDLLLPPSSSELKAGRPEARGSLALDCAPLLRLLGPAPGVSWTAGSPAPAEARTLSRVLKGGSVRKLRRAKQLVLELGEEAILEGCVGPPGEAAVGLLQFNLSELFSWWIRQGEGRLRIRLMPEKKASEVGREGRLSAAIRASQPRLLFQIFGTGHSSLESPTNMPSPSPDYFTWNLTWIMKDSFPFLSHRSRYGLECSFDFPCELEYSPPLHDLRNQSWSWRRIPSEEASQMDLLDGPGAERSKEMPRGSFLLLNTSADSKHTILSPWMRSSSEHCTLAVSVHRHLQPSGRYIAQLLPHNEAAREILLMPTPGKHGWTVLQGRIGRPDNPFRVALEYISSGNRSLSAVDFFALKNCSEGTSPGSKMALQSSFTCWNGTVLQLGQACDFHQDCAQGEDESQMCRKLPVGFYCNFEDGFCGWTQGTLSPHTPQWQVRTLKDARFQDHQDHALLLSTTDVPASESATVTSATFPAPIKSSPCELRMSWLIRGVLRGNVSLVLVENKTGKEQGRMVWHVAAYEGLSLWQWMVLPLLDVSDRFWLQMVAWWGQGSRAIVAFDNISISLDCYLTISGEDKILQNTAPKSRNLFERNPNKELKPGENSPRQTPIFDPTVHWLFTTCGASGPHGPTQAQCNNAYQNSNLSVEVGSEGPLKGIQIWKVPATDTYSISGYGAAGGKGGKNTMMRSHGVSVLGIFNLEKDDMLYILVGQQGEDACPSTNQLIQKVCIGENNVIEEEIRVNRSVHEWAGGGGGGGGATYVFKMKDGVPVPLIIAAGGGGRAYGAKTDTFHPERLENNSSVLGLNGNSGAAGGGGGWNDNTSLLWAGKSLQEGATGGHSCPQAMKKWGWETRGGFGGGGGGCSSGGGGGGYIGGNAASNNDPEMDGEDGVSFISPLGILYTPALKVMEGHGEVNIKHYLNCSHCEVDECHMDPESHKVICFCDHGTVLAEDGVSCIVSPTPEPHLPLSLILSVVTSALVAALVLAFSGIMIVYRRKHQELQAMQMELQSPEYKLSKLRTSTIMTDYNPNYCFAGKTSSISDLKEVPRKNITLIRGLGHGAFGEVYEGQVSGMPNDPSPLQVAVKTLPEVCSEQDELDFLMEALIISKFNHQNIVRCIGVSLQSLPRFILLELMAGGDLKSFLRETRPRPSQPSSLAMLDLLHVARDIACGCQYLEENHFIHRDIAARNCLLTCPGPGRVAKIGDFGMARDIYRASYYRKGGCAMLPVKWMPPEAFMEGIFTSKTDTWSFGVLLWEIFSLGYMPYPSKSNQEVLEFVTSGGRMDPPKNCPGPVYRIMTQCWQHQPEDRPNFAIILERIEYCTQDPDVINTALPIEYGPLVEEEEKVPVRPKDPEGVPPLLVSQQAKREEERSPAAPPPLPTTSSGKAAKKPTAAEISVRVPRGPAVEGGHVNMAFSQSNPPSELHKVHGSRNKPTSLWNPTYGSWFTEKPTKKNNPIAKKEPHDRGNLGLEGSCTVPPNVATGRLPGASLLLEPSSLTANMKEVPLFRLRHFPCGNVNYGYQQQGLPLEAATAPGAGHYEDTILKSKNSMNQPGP
pKd: −log10 of the molar value.
readout: pKd

- CCOc1cc2ncc(C#N)c(Nc3ccc(F)c(Cl)c3)c2cc1NC(=O)/C=C/CN(C)C: 5.15
- Oc1ccc(-c2nc(-c3ccncc3)c(-c3ccc(F)cc3)[nH]2)cc1: < 5.00
- NC(=O)c1ccc(-c2nc(-c3ccc4c(c3)OCO4)c(-c3ccccn3)[nH]2)cc1: < 5.00
- COCC(=O)NC/C=C/c1ccc2ncnc(Nc3ccc(Oc4ccc(C)nc4)c(C)c3)c2c1: < 5.00
